- target.entity: T1, orthogonal hCD122 receptor (hoRb), hCD122 with H133D and Y134F (human, UniProt P14784 27-550)
- T1 sequence: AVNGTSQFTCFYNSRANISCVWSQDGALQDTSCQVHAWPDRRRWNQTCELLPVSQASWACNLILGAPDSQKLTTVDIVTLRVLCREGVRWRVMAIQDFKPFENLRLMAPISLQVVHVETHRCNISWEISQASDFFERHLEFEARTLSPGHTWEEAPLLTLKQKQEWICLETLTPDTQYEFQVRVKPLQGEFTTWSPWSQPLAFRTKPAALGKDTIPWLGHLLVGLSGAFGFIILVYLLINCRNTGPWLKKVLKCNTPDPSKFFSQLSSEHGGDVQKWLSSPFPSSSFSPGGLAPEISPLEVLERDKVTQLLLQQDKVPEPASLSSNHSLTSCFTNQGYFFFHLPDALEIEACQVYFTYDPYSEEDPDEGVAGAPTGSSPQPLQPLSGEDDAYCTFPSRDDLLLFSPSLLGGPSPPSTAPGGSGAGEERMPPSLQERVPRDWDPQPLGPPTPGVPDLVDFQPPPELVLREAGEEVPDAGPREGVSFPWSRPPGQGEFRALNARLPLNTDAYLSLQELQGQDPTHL
- test.summary: cell-based or functional assay
test.readout: 3F8 Ortho Proliferation Signal 1:50 (cts/min)
# output: bare number, implied unit cts/min

Please review the entries below; each comes with its answer.
Bench note: what 3F8 Ortho Proliferation Signal 1:50 did SQILKA (ligand) APTSSSTKKTQLQLSQLLILLKAILNGINNYKNPKLTRMLTFKFYMPKKATELKHLQCLEEELKPLEEVLNLAQSKNFHLRPRDLISNINVIVLELKGSETTFMCEYADETATIVEFLNRWITFCQSIISTLT show?
20300

Bench note: what 3F8 Ortho Proliferation Signal 1:50 did K97Q, SQVLKA (ligand) APTSSSTKKTQLQLSQLLVLLKAILNGINNYKNPKLTRMLTFKFYMPKKATELKHLQCLEEELKPLEEVLNLAQSKNFHLRPRDLISNINVIVLELQGSETTFMCEYADETATIVEFLNRWITFCQSIISTLT show?
19700

Bench note: what 3F8 Ortho Proliferation Signal 1:50 did L80F, SQVLKA (ligand) APTSSSTKKTQLQLSQLLVLLKAILNGINNYKNPKLTRMLTFKFYMPKKATELKHLQCLEEELKPLEEVLNLAQSKNFHFRPRDLISNINVIVLELKGSETTFMCEYADETATIVEFLNRWITFCQSIISTLT show?
25800

Bench note: what 3F8 Ortho Proliferation Signal 1:50 did Q126T, SQVLKA (ligand) APTSSSTKKTQLQLSQLLVLLKAILNGINNYKNPKLTRMLTFKFYMPKKATELKHLQCLEEELKPLEEVLNLAQSKNFHLRPRDLISNINVIVLELKGSETTFMCEYADETATIVEFLNRWITFCTSIISTLT show?
1320

Bench note: what 3F8 Ortho Proliferation Signal 1:50 did Q126E, SQVLKA (ligand) APTSSSTKKTQLQLSQLLVLLKAILNGINNYKNPKLTRMLTFKFYMPKKATELKHLQCLEEELKPLEEVLNLAQSKNFHLRPRDLISNINVIVLELKGSETTFMCEYADETATIVEFLNRWITFCESIISTLT show?
2660

Bench note: what 3F8 Ortho Proliferation Signal 1:50 did SQVLHA (ligand) APTSSSTKKTQLQLSQLLVLLHAILNGINNYKNPKLTRMLTFKFYMPKKATELKHLQCLEEELKPLEEVLNLAQSKNFHLRPRDLISNINVIVLELKGSETTFMCEYADETATIVEFLNRWITFCQSIISTLT show?
19100

Bench note: what 3F8 Ortho Proliferation Signal 1:50 did SQVLKL (ligand) APTSSSTKKTQLQLSQLLVLLKLILNGINNYKNPKLTRMLTFKFYMPKKATELKHLQCLEEELKPLEEVLNLAQSKNFHLRPRDLISNINVIVLELKGSETTFMCEYADETATIVEFLNRWITFCQSIISTLT show?
8930

Bench note: what 3F8 Ortho Proliferation Signal 1:50 did V91K, SQVLKA (ligand) APTSSSTKKTQLQLSQLLVLLKAILNGINNYKNPKLTRMLTFKFYMPKKATELKHLQCLEEELKPLEEVLNLAQSKNFHLRPRDLISNINKIVLELKGSETTFMCEYADETATIVEFLNRWITFCQSIISTLT show?
804

---
Bench note: what 3F8 Ortho Proliferation Signal 1:50 did T3C, SQVLKA (ligand) APCSSSTKKTQLQLSQLLVLLKAILNGINNYKNPKLTRMLTFKFYMPKKATELKHLQCLEEELKPLEEVLNLAQSKNFHLRPRDLISNINVIVLELKGSETTFMCEYADETATIVEFLNRWITFCQSIISTLT show?
14600

Bench note: what 3F8 Ortho Proliferation Signal 1:50 did SQVLKY (ligand) APTSSSTKKTQLQLSQLLVLLKYILNGINNYKNPKLTRMLTFKFYMPKKATELKHLQCLEEELKPLEEVLNLAQSKNFHLRPRDLISNINVIVLELKGSETTFMCEYADETATIVEFLNRWITFCQSIISTLT show?
24600
